readout_kind: melting point

Solved entries:
>>> result("CC(C)(C)c1cc(Oc2ccc([N+](=O)[O-])cc2S(=O)(=O)N2CCNCC2)cc(C(C)(C)C)c1.Cl")
"141 to 143 °C"
>>> result("Cc1cc(C)cc(Oc2cc(C)c([N+](=O)[O-])cc2S(=O)(=O)N2CCNCC2)c1.Cl")
"159 °C"
>>> result("Cc1cc(C)c(C)c(Oc2ccc([N+](=O)[O-])cc2S(=O)(=O)N2CCNCC2)c1.Cl")
"187 °C"
>>> result("Cl.O=[N+]([O-])c1ccc(Oc2cccc3ccccc23)c(S(=O)(=O)N2CCNCC2)c1")
"196 to 198 °C"
>>> result("Cc1ccc(C)c(Oc2ccc([N+](=O)[O-])cc2S(=O)(=O)N2CCNCC2)c1.Cl")
"141 °C"
>>> result("O=[N+]([O-])c1ccc(Oc2cc(Cl)cc(Cl)c2)c(S(=O)(=O)NC2CCNCC2)c1")
"> 300 °C"
>>> result("Cl.O=[N+]([O-])c1ccc(Sc2cc(Cl)cc(Cl)c2)c(S(=O)(=O)N2CCNCC2)c1")
"262 to 264 °C"

Attention now turns to another entry.
Identify melting point associated with the compound N#Cc1ccc(Oc2cc(Cl)cc(Cl)c2)c(S(=O)(=O)N2CCNCC2)c1
179 to 181 °C
